Listed next: entries and their corresponding binding signal.
# experimental-target: pT7_6His-AlfaTag-HOXD13 (human, UniProt P35453 263-343)
# Sequence (P35453 263-343): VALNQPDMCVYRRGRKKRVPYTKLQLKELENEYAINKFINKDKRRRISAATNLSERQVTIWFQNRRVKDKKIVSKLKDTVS
# assay-protocol: PADIT-seq
# measurement-context: dsDNA, one strand shown
experimental-readout: binding signal (log2FC)

# sequence-text, experimental-target, experimental-readout, quantitative-result
rows = [
    ("CTCGAGGATATCAAGATCTGGCCTCGGCGTTTTAGCTGGAACCTCTAGCTAGCCGACTCACTATAGGGATAATCGCCCTGAGCAAAGACC", "pT7_6His-AlfaTag-HOXD13 (human, UniProt P35453 263-343)", "binding signal", -0.719),
    ("CTCGAGGATATCAAGATCTGGCCTCGGCATAATAAAAGGAACCTCTAGCTAGCCGACTCACTATAGGGATAATCGCCCTGAGCAAAGACC", "pT7_6His-AlfaTag-HOXD13 (human, UniProt P35453 263-343)", "binding signal", 2.68),
    ("CTCGAGGATATCAAGATCTGGCCTCGGCGCGTGGTATGGAACCTCTAGCTAGCCGACTCACTATAGGGATAATCGCCCTGAGCAAAGACC", "pT7_6His-AlfaTag-HOXD13 (human, UniProt P35453 263-343)", "binding signal", -1.06),
    ("CTCGAGGATATCAAGATCTGGCCTCGGCCTTATAAAAGGAACCTCTAGCTAGCCGACTCACTATAGGGATAATCGCCCTGAGCAAAGACC", "pT7_6His-AlfaTag-HOXD13 (human, UniProt P35453 263-343)", "binding signal", 2.88),
    ("CTCGAGGATATCAAGATCTGGCCTCGGCCAACTAAAAGGAACCTCTAGCTAGCCGACTCACTATAGGGATAATCGCCCTGAGCAAAGACC", "pT7_6His-AlfaTag-HOXD13 (human, UniProt P35453 263-343)", "binding signal", 0.0444),
    ("CTCGAGGATATCAAGATCTGGCCTCGGCGCCGTAAAAGGAACCTCTAGCTAGCCGACTCACTATAGGGATAATCGCCCTGAGCAAAGACC", "pT7_6His-AlfaTag-HOXD13 (human, UniProt P35453 263-343)", "binding signal", 1.76),
    ("CTCGAGGATATCAAGATCTGGCCTCGGCCGTATAAAAGGAACCTCTAGCTAGCCGACTCACTATAGGGATAATCGCCCTGAGCAAAGACC", "pT7_6His-AlfaTag-HOXD13 (human, UniProt P35453 263-343)", "binding signal", 2.31),
    ("CTCGAGGATATCAAGATCTGGCCTCGGCGCTGTAAAAGGAACCTCTAGCTAGCCGACTCACTATAGGGATAATCGCCCTGAGCAAAGACC", "pT7_6His-AlfaTag-HOXD13 (human, UniProt P35453 263-343)", "binding signal", 2.11),
    ("CTCGAGGATATCAAGATCTGGCCTCGGCAGCTTAAAAGGAACCTCTAGCTAGCCGACTCACTATAGGGATAATCGCCCTGAGCAAAGACC", "pT7_6His-AlfaTag-HOXD13 (human, UniProt P35453 263-343)", "binding signal", 0.129),
    ("CTCGAGGATATCAAGATCTGGCCTCGGCTTATGGGCGGGAACCTCTAGCTAGCCGACTCACTATAGGGATAATCGCCCTGAGCAAAGACC", "pT7_6His-AlfaTag-HOXD13 (human, UniProt P35453 263-343)", "binding signal", 1.03),
    ("CTCGAGGATATCAAGATCTGGCCTCGGCATTTTAGTCGGAACCTCTAGCTAGCCGACTCACTATAGGGATAATCGCCCTGAGCAAAGACC", "pT7_6His-AlfaTag-HOXD13 (human, UniProt P35453 263-343)", "binding signal", -0.427),
    ("CTCGAGGATATCAAGATCTGGCCTCGGCGTTTTACGCGGAACCTCTAGCTAGCCGACTCACTATAGGGATAATCGCCCTGAGCAAAGACC", "pT7_6His-AlfaTag-HOXD13 (human, UniProt P35453 263-343)", "binding signal", 2.22),
    ("CTCGAGGATATCAAGATCTGGCCTCGGCGTTTTACTAGGAACCTCTAGCTAGCCGACTCACTATAGGGATAATCGCCCTGAGCAAAGACC", "pT7_6His-AlfaTag-HOXD13 (human, UniProt P35453 263-343)", "binding signal", 2.96),
    ("CTCGAGGATATCAAGATCTGGCCTCGGCTGGGTAAAAGGAACCTCTAGCTAGCCGACTCACTATAGGGATAATCGCCCTGAGCAAAGACC", "pT7_6His-AlfaTag-HOXD13 (human, UniProt P35453 263-343)", "binding signal", -0.514),
    ("CTCGAGGATATCAAGATCTGGCCTCGGCCTTTTACCGGGAACCTCTAGCTAGCCGACTCACTATAGGGATAATCGCCCTGAGCAAAGACC", "pT7_6His-AlfaTag-HOXD13 (human, UniProt P35453 263-343)", "binding signal", 0.698),
    ("CTCGAGGATATCAAGATCTGGCCTCGGCCTTTTAGATGGAACCTCTAGCTAGCCGACTCACTATAGGGATAATCGCCCTGAGCAAAGACC", "pT7_6His-AlfaTag-HOXD13 (human, UniProt P35453 263-343)", "binding signal", 0.264),
    ("CTCGAGGATATCAAGATCTGGCCTCGGCATTTTAGCCGGAACCTCTAGCTAGCCGACTCACTATAGGGATAATCGCCCTGAGCAAAGACC", "pT7_6His-AlfaTag-HOXD13 (human, UniProt P35453 263-343)", "binding signal", -0.535),
    ("CTCGAGGATATCAAGATCTGGCCTCGGCTTTTTAAACGGAACCTCTAGCTAGCCGACTCACTATAGGGATAATCGCCCTGAGCAAAGACC", "pT7_6His-AlfaTag-HOXD13 (human, UniProt P35453 263-343)", "binding signal", 1.28),
    ("CTCGAGGATATCAAGATCTGGCCTCGGCCTTTTATGTGGAACCTCTAGCTAGCCGACTCACTATAGGGATAATCGCCCTGAGCAAAGACC", "pT7_6His-AlfaTag-HOXD13 (human, UniProt P35453 263-343)", "binding signal", 2.69),
    ("CTCGAGGATATCAAGATCTGGCCTCGGCGCGTAAGCGGGAACCTCTAGCTAGCCGACTCACTATAGGGATAATCGCCCTGAGCAAAGACC", "pT7_6His-AlfaTag-HOXD13 (human, UniProt P35453 263-343)", "binding signal", -0.575),
    ("CTCGAGGATATCAAGATCTGGCCTCGGCGCGGGCGCGGGAACCTCTAGCTAGCCGACTCACTATAGGGATAATCGCCCTGAGCAAAGACC", "pT7_6His-AlfaTag-HOXD13 (human, UniProt P35453 263-343)", "binding signal", -1.05),
    ("CTCGAGGATATCAAGATCTGGCCTCGGCCGCCCATCAGGAACCTCTAGCTAGCCGACTCACTATAGGGATAATCGCCCTGAGCAAAGACC", "pT7_6His-AlfaTag-HOXD13 (human, UniProt P35453 263-343)", "binding signal", -1.02),
    ("CTCGAGGATATCAAGATCTGGCCTCGGCCGCCCAATTGGAACCTCTAGCTAGCCGACTCACTATAGGGATAATCGCCCTGAGCAAAGACC", "pT7_6His-AlfaTag-HOXD13 (human, UniProt P35453 263-343)", "binding signal", -0.555),
    ("CTCGAGGATATCAAGATCTGGCCTCGGCCATATAAAAGGAACCTCTAGCTAGCCGACTCACTATAGGGATAATCGCCCTGAGCAAAGACC", "pT7_6His-AlfaTag-HOXD13 (human, UniProt P35453 263-343)", "binding signal", 2.76),
    ("CTCGAGGATATCAAGATCTGGCCTCGGCCTTTTAATCGGAACCTCTAGCTAGCCGACTCACTATAGGGATAATCGCCCTGAGCAAAGACC", "pT7_6His-AlfaTag-HOXD13 (human, UniProt P35453 263-343)", "binding signal", 1.35),
    ("CTCGAGGATATCAAGATCTGGCCTCGGCGCGATTGCGGGAACCTCTAGCTAGCCGACTCACTATAGGGATAATCGCCCTGAGCAAAGACC", "pT7_6His-AlfaTag-HOXD13 (human, UniProt P35453 263-343)", "binding signal", -0.695),
    ("CTCGAGGATATCAAGATCTGGCCTCGGCTTAATAAAAGGAACCTCTAGCTAGCCGACTCACTATAGGGATAATCGCCCTGAGCAAAGACC", "pT7_6His-AlfaTag-HOXD13 (human, UniProt P35453 263-343)", "binding signal", 2.67),
]

Data origin, for the record: paper doi:10.1101/2024.03.05.583629
